Test system: Trypanosoma brucei brucei
Assay: Antitrypanosomal activity against diminazene-resistant Trypanosoma brucei brucei deltaTbat1-KO after 48 hrs by alamar blue assay
Format: functional, organism-based
test_readout: pEC50
Friendly reminder that pEC50 comes from taking -log10 of the concentration in mol/L.

The compound COc1ccc(/C=C/C(=O)CC(=O)/C=C/c2ccc(O)c(OC)c2)cc1 showed pEC50 equal to 5.70

The compound COc1ccc(/C=C/C(=O)CC(=O)/C=C/c2ccc(OC)c(OC)c2)cc1 showed pEC50 equal to 5.72

The compound COc1cc(/C=C/C(=O)CC(=O)/C=C/c2ccc(OCC=C(C)C)c(OC)c2)ccc1O showed pEC50 equal to 5.77

The compound COc1cc(/C=C/C(=O)CC(=O)/C=C/c2ccc(OCCO)c(OC)c2)ccc1O showed pEC50 equal to 5.54

The compound CCCCCOc1ccc(CC/C=C/C(=O)CCc2ccc(OCCCCC)c(OC)c2)cc1OC showed pEC50 equal to 5.92

The compound COc1cc(/C=C/C(O)=C/C(=O)/C=C/c2ccc(O)cc2)ccc1O [DEMETHOXYCURCUMIN] showed pEC50 equal to 5.23

The compound COc1cc(CCC(=O)CC(=O)CCc2ccc(O)c(OC)c2)ccc1O [TETRAHYDROCURCUMIN] showed pEC50 equal to 4.43

The compound COc1cc(/C=C/C(=O)/C=C/CCc2ccc(O)c(OC)c2)ccc1O showed pEC50 equal to 6.66

The compound COc1cc(/C=C/C(=O)CC(=O)/C=C/c2ccc(OCCO)cc2)ccc1O showed pEC50 equal to 6.07

The compound COc1cc(CCC(O)CC(O)CCc2ccc(O)c(OC)c2)ccc1O (stereo not given) [OCTAHYDROCURCUMIN] showed pEC50 equal to 4.21

The compound COc1cc(CC/C=C/C(=O)CCc2ccc(OC(C)=O)c(OC)c2)ccc1OC(C)=O showed pEC50 equal to 7.38

The compound COc1cc(/C=C/C=C/C(=O)CCc2ccc(O)c(OC)c2)ccc1O showed pEC50 equal to 5.01

The compound COc1cc(/C=C/C(=O)CC(=O)/C=C/c2ccc(OC(=O)c3ccccc3)cc2)ccc1O showed pEC50 equal to 5.11

The compound COc1cc(/C=C/C(=O)CC(=O)/C=C/c2ccc(OC(C)=O)cc2)ccc1OC(C)=O showed pEC50 equal to 5.70

The compound O=C(/C=C/c1ccc(O)c(O)c1)CC(=O)/C=C/c1ccc(O)c(O)c1 showed pEC50 equal to 5.60

The compound COc1ccc(CC/C=C/C(=O)CCc2ccc(OC)c(OC)c2)cc1OC showed pEC50 equal to 5.80

The compound O=C(CCc1ccc(O)c(O)c1)CC(=O)CCc1ccc(O)c(O)c1 [DIDEMETHYLTETRAHYDROCURCUMIN] showed pEC50 equal to 5.82

The compound N=C(N)c1ccc(/N=N/Nc2ccc(C(=N)N)cc2)cc1 [DIMINAZENE] showed pEC50 equal to 5.62

The compound COc1cc(/C=C/C(=O)CC(=O)/C=C/c2ccc(OC(=O)c3ccccc3)c(OC)c2)ccc1O showed pEC50 equal to 5.42

The compound COc1cc(/C=C/C(=O)CC(=O)/C=C/c2ccc(OCC=C(C)C)c(OC)c2)ccc1OCC=C(C)C showed pEC50 equal to 5.80
